subject of test: Aryl hydrocarbon receptor (Homo sapiens) (UniProt P35869)
Sequence (P35869 whole entry, looked up): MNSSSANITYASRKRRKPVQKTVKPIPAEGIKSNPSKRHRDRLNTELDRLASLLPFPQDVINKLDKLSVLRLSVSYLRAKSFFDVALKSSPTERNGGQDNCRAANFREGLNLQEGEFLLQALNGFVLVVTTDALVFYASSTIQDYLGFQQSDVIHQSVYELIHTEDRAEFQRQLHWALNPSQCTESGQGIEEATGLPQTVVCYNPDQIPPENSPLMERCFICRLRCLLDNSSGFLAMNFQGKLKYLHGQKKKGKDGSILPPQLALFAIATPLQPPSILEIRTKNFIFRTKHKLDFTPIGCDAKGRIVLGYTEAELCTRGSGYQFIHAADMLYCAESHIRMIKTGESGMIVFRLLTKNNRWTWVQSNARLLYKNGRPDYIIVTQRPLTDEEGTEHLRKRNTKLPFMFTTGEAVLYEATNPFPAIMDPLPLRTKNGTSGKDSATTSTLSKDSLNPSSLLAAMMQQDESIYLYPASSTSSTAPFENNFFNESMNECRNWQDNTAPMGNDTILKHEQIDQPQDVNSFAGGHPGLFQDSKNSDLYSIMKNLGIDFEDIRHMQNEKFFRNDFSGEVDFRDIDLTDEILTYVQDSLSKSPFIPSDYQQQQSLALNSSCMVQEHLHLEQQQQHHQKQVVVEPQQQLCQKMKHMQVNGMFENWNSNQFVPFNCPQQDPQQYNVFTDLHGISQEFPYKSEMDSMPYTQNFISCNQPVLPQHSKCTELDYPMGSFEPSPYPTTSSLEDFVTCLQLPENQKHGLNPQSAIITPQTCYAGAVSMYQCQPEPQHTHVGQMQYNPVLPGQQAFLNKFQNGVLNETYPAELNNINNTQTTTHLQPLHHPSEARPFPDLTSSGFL
protocol description: AHR activators, primary screen, cell-based, luminescence, luciferase reporter, human (AID 2796);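 note: 0% = vehicle wells and 100% = reference agonist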
measurement conditions: AHR-responsive luciferase reporter cells, at 5 µM, active compounds read high
Hit rate of the full screen: of about 320,000 compounds, about 8,000 (2.5%) were called active. The full list was thinned out, with actives kept by preference.
// reported activation per item
Give your result in % as a bare value.

compound | activation [%]
CC1CCN(Cc2nc(-c3ccc(Cl)cc3)no2)CC1 | -0.15
COc1ccc(N2CCN(S(=O)(=O)c3cc4c5c(c3)C(C)C(=O)N5CCC4)CC2)cc1 (stereo unspecified) | -1.29
CCc1cc2c(=O)c(-c3ccc(F)cc3)c(C(F)(F)F)oc2cc1OCC(=O)O | 8.09
Fc1ccc2nc(Nc3nc4c(s3)CCCC4)sc2c1 | 49.8
CCS(=O)(=O)N1Cc2ccccc2CC1C(=O)Nc1nc2ccc(F)cc2s1 (stereo unspecified) | -3.42
CCOC(=O)C1=C(C)N=C2c3ccccc3C(=O)C2C1c1ccc(Br)cc1 (stereo unspecified) | 3.41
COCC1CCCN(Cc2nc(-c3ccc4c(c3)OCO4)no2)C1 (stereo unspecified) | 52.6
COc1ccc2c(c1)CC[C@@H]1[C@@H]2CC[C@]2(C)C(=O)CC[C@@H]12 | -1.47

Request: Retrieve activation on Aryl hydrocarbon receptor (Homo sapiens) (UniProt P35869); query NS(=O)(=O)c1ccc2nc(NC(=O)CS(=O)(=O)c3ccc(F)cc3)sc2c1
Result: 8.79

Request: Find activation for O=C(COC(=O)/C=C/c1cccc(Cl)c1)NCc1cccs1 on Aryl hydrocarbon receptor (Homo sapiens) (UniProt P35869) and write it down.
Result: 1.89

Request: Please report activation with Aryl hydrocarbon receptor (Homo sapiens) (UniProt P35869) for item COCC1CCCN(Cc2cn[nH]c2-c2cc3ccccc3o2)C1 (stereo unspecified) .
Result: 4.44

###

Quick reference: activation of the listed items.
subject of test: Aryl hydrocarbon receptor (Homo sapiens) (UniProt P35869)
protocol description: AHR activators, primary screen, cell-based, luminescence, luciferase reporter, human (AID 2796);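 note: 0% = vehicle wells and 100% = reference agonist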
measurement conditions: AHR-responsive luciferase reporter cells, at 5 µM, active compounds read high
About 8,000 (2.5%) of roughly 320,000 compounds were called active. This is one part of a sample in which actives are shown more often than they occur.
Write down the numeric answer in % and omit the unit.

// known answers, use as guide
compound | unit symbol | activation
N#CC(=C1CCCC1)c1nc(-c2ccc(Cl)cc2)cs1 | % | 4.95
Cc1ccc(NC(=O)CSc2nn3c(=O)c(C)nnc3s2)cc1Cl | % | 72.8
CN(C)CCCNC(=S)N1CCC(c2nc3ccccc3[nH]2)CC1 | % | -0.37

Request: Please give measured activation of the following entry: Cn1c(Nc2cccc(Cl)c2)nc2ccccc21
Result: -1.72

Request: Give activation for COc1ccccc1C(=O)COC(=O)COc1ccc(C#N)cc1
Result: -0.13

Request: Tell me activation reported for O=C(Nc1ncc([N+](=O)[O-])s1)C1COc2ccccc2O1 (stereo not given)
Result: 6.36

Request: Indicate the recorded activation value for this compound: CCOc1ccc(OCc2cccc(C(=O)N(CC)CC)c2)cc1
Result: -5.06

Request: Identify the reported activation for the following entry. CCSc1nc2c(c(=O)[nH]1)C(c1cccnc1)C(C(=O)OC(C)C)=C(C)N2 (stereo not given)
Result: 0.13

###

subject of test: Aryl hydrocarbon receptor (Homo sapiens)
protocol description: AHR activators, primary screen, cell-based, luminescence, luciferase reporter, human (AID 2796);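 note: 0% = vehicle wells and 100% = reference agonist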
measurement conditions: AHR-responsive luciferase reporter cells, at 5 µM, active compounds read high
Screen size: about 320,000 compounds; about 8,000 (2.5%) were called active. What follows is part of a selection rich in actives, with near analogues and random picks from the rest.
endpoint name: activation (%)
Quick note: give the figure in %, leave out the unit.

structure smiles string | subject of test | activation / %
COc1cc(OC)cc(-c2sc3ccc(OC)cc3c2-c2ccc3cc[nH]c3c2)c1 | Aryl hydrocarbon receptor (Homo sapiens) | 13
N#Cc1ccccc1NC(=O)c1ccc2c(c1)OCO2 | Aryl hydrocarbon receptor (Homo sapiens) | 32.1
COc1ccc2c(c1)CCC/C2=N\OC(=O)c1ccccc1F | Aryl hydrocarbon receptor (Homo sapiens) | 2.52
COc1ccccc1Cn1c(C)nnc1-c1cnn(C)c1N | Aryl hydrocarbon receptor (Homo sapiens) | 4.53

As a next step, examine the molecule that follows.
Request: Quote activation reported for COc1cc(/C=C/C(=O)Nc2ccc(OC)c(S(=O)(=O)N3CCOCC3)c2)ccc1OCC#N please.
Result: -0.9

###

subject of test: Aryl hydrocarbon receptor (Homo sapiens)
protocol description: AHR activators, primary screen, cell-based, luminescence, luciferase reporter, human (AID 2796);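 note: 0% = vehicle wells and 100% = reference agonist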
measurement conditions: AHR-responsive luciferase reporter cells, at 5 µM, active compounds read high
Screen size: about 320,000 compounds; about 8,000 (2.5%) were called active. Many of the other results were omitted from the sample, so actives are more common in it than they were.
endpoint name: activation (%)
Give the value, in units of %, as a plain number.

A selection of reference data follows.
compound | activation / %
O=S(=O)(NCc1ccccc1Br)c1ccccc1Br | -0.52
Cc1cccc(N=Nc2c(C)[nH]n(-c3ccccc3)c2=O)c1 | 40
COCC(C)n1c(C)cc(C(=O)CSc2cc(C)c3ccccc3n2)c1C (stereo unspecified) | 43.7
Cc1c(C(=O)NC(=S)NCc2cccnc2)oc2ccccc12 | 6.27
COc1ccc(CCNc2nc(C)cc(C)n2)cc1OC | 4.65

Now for another entry.
Request: Give the reported activation for this compound. CC1=NN(C(N)=S)C(=O)C1N=Nc1cc(Cl)ccc1Cl (stereo unspecified)
Result: 11.5

###

subject of test: Aryl hydrocarbon receptor (Homo sapiens) (UniProt P35869)
protocol description: AHR activators, primary screen, cell-based, luminescence, luciferase reporter, human (AID 2796);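 note: 0% = vehicle wells and 100% = reference agonist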
measurement conditions: AHR-responsive luciferase reporter cells, at 5 µM, active compounds read high
About 8,000 (2.5%) of roughly 320,000 compounds were called active. This is one part of a sample in which actives are shown more often than they occur.
Each item that follows carries a reported activation.
Reply with just the number (in %).

compound | unit symbol | activation
COc1ccc(N2C(=O)C3C(C2=O)C(C(=O)c2ccccc2)N2CCCC32)cc1 (configuration not stated) | % | 5.21
Clc1ccc(Cc2nnc(-c3cccs3)o2)cc1 | % | -4.17
CC(C)(C)C(=O)NCCCNc1ccc([N+](=O)[O-])cc1 | % | 2.34
Cc1cccc[n+]1CC(=O)c1ccccc1 | % | 1.77
O=C(NCc1cccnc1)C(=O)Nc1nc(-c2ccccc2)cs1 | % | 8.85

Request: With Aryl hydrocarbon receptor (Homo sapiens) (UniProt P35869) as the test system, provide measured activation for this compound: O=C(CNC(=O)c1ccc(F)cc1)c1ccccc1
Result: 3.71

Request: // fetch activation for O=C(C[n+]1cc(Br)cc2ccccc21)c1ccc(F)cc1 ; system: Aryl hydrocarbon receptor (Homo sapiens) (UniProt P35869)
Result: 58.6

Request: Quote activation with test system Aryl hydrocarbon receptor (Homo sapiens) (UniProt P35869) for COc1cccc(CNS(=O)(=O)c2ccc3c(c2)N(C(C)=O)CCS3)c1
Result: 7.96

Request: Name the recorded activation of COc1ccc(CCN(C(=O)COc2ccccc2)c2nc(-c3ccccc3)cs2)cc1OC , assay system Aryl hydrocarbon receptor (Homo sapiens) (UniProt P35869).
Result: 23.4

Request: Write activation of O=C(COc1ccc(F)cc1Br)NCC1COc2ccccc2O1 (configuration not stated) ; system used: Aryl hydrocarbon receptor (Homo sapiens) (UniProt P35869)
Result: 2.44

Request: State the measured activation (Aryl hydrocarbon receptor (Homo sapiens) (UniProt P35869)) of COc1ccc(CCNc2nc(-c3cccc(NC(C)=O)c3)cs2)cc1OC
Result: 59

Request: Supply activation measured with Aryl hydrocarbon receptor (Homo sapiens) (UniProt P35869) for CC(=O)N1CSCC1C(=O)O (configuration not stated) .
Result: 0.15

###

subject of test: Aryl hydrocarbon receptor (Homo sapiens)
protocol description: AHR activators, primary screen, cell-based, luminescence, luciferase reporter, human (AID 2796);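 note: 0% = vehicle wells and 100% = reference agonist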
measurement conditions: AHR-responsive luciferase reporter cells, at 5 µM, active compounds read high
The campaign covered roughly 320,000 compounds. About 8,000 (2.5%) were called active. This is one part of a sample in which actives are shown more often than they occur.
endpoint name: activation (%)
# number only, unit % dropped from output

compound | endpoint name | value observed
COc1cc(NC(=O)c2ccc3c(c2)OCO3)ccc1NC(=O)c1cccs1 | activation | 12.8
O=C(Nc1ccc2c(c1)OCO2)c1sc2cc(Cl)ccc2c1Cl | activation | 33.1
Cn1cncc1C#Cc1c(-c2ccsc2)sc2ccccc12 | activation | 52.7
O=C(Nc1cccc(S(=O)(=O)N2CCCCC2)c1)c1ccc2c(c1)OCO2 | activation | 56
O=C(Nc1nc2ccccc2s1)c1ccc2c(c1)OCO2 | activation | 6.38

Request: Give activation for CC(Sc1nc2cc(Cl)ccc2s1)C(=O)Nc1ccc2c(c1)OCO2 (stereo unspecified) tested on Aryl hydrocarbon receptor (Homo sapiens).
Result: 65.3

Request: Please report the measured activation for O=C(Nc1cccc(S(=O)(=O)N2CCCCC2)c1)c1cncc(Br)c1 tested on Aryl hydrocarbon receptor (Homo sapiens).
Result: 17.9

Request: Lab note: Aryl hydrocarbon receptor (Homo sapiens) assay, enter activation for CC(Sc1nc(-c2ccccc2)cc(C(F)(F)F)n1)C(=O)Nc1ccc2c(c1)OCO2 (stereo unspecified) here
Result: 5.04

Request: Identify measured activation obtained with Aryl hydrocarbon receptor (Homo sapiens) for COCc1nnc(NC(=O)c2ccc3c(c2)OCO3)s1 .
Result: 50

Request: Fetch value of activation on Aryl hydrocarbon receptor (Homo sapiens) for CC(C)NC(=O)CSc1ccccc1C(=O)NCc1ccc2c(c1)OCO2 .
Result: 1.44

Request: Consider the compound CSc1ncccc1C(=O)Nc1ccc2c(c1)OCO2 tested on Aryl hydrocarbon receptor (Homo sapiens); state its activation.
Result: 32.3
